- Assayed Target: Amine oxidase [flavin-containing] A (Homo sapiens)
- Sequence (P21397 whole entry): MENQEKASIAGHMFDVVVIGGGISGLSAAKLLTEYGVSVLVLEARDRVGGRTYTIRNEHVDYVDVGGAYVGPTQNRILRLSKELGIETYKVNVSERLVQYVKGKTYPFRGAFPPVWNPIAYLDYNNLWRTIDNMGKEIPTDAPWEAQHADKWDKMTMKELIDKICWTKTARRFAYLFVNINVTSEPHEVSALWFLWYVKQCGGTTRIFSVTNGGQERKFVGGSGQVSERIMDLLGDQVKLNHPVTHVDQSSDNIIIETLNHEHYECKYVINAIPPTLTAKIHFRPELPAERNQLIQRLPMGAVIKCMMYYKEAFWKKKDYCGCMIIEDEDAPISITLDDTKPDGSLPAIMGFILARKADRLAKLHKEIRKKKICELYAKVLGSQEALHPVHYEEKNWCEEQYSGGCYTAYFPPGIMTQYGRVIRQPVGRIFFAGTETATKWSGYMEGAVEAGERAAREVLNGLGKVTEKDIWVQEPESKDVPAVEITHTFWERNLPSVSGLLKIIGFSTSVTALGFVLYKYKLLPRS
- Test Method Notes: Inhibition of recombinant human MAO-A expressed in baculovirus infected BTI insect cells assessed as reduction in H2O2 production using p-tyramine as substrate pretreated for 30 mins followed by substrate addition after 30 mins by Amplex red reagent based assay
Could you please report measured IC50 for the items listed next?

Sample Smiles	Assayed Target	IC50
O=C1COC(c2ccc(/C=N/c3cccc(Cl)c3)cc2)=NN1	Amine oxidase [flavin-containing] A (Homo sapiens)	> 100 µM
O=C1COC(c2ccc(NC(=O)Nc3cccc(Cl)c3)cc2)=NN1	Amine oxidase [flavin-containing] A (Homo sapiens)	> 100 µM

# input for lookup
Consider `O=C1COC(c2ccc(/C=C/c3ccccc3)cc2)=NN1` . Its measured IC50 is > 100 µM

###

- Assayed Target: Amine oxidase [flavin-containing] B (Homo sapiens)
- Sequence (P27338 whole entry): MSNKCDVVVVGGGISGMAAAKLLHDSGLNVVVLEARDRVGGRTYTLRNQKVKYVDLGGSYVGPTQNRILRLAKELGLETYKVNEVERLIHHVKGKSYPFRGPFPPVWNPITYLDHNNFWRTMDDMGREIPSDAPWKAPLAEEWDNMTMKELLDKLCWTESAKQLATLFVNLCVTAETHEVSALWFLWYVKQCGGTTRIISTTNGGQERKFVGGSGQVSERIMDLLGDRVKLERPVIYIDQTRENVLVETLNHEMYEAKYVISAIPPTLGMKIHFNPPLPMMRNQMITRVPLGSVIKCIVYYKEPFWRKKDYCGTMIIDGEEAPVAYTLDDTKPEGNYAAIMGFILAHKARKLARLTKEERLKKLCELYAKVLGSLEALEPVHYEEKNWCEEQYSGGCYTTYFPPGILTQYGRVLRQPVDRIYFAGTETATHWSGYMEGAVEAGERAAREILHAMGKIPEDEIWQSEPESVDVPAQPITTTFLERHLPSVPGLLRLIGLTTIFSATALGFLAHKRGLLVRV
- Test Method Notes: Reversible inhibition of recombinant human MAO-B expressed in baculovirus infected BTI insect cells assessed as reduction in H2O2 production using p-tyramine as substrate at 3 times IC50 pretreated up to 60 mins followed by substrate addition after 30 mins by Amplex red reagent based assay
- Condition Notes: 0.5 h

Sample Smiles	inhibition (INH)
O=C1COC(c2ccc(/N=N/c3ccccc3)cc2)=NN1	Active
O=C1COC(c2ccc(/C=C/c3cccc(F)c3)cc2)=NN1	Active
Cc1cccc(/C=N/c2ccc(C3=NNC(=O)CO3)cc2)c1	Active
O=C1COC(c2ccc(/N=C/c3cccc(Cl)c3)cc2)=NN1	Active

###

Could you please report measured IC50 for the items listed next?
- Assayed Target: Amine oxidase [flavin-containing] B (Homo sapiens)
- Sequence (P27338 whole entry): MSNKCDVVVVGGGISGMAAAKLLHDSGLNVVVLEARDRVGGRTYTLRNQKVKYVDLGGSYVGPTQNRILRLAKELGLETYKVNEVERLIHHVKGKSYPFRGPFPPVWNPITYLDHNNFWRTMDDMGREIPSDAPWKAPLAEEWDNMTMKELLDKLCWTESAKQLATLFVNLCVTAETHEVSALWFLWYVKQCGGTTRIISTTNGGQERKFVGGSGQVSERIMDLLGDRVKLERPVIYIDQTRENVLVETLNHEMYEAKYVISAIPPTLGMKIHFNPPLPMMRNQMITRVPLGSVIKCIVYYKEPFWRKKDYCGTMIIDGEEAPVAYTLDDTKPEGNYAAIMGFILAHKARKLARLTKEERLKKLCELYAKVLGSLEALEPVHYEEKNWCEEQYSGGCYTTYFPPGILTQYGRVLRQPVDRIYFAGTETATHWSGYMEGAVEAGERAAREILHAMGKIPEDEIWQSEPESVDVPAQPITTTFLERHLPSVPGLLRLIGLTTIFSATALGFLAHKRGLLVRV
- Test Method Notes: Inhibition of recombinant human MAO-B expressed in baculovirus infected BTI insect cells assessed as reduction in H2O2 production using p-tyramine as substrate pretreated for 30 mins followed by substrate addition after 30 mins by Amplex red reagent based assay

Sample Smiles	IC50
N#CCCN1N=C(c2ccc(NC(=O)c3cccc(Cl)c3)cc2)OCC1=O	4.23 µM

Please look at the items below and tell me IC50 for each one, in order.
1. O=C1COC(c2ccc(/C=C/c3ccccc3)cc2)=NN1
2. O=C1COC(c2ccc(NC(=O)c3cccc(Cl)c3)cc2)=NN1
3. O=C1COC(c2ccc(C(=O)Nc3cccc(Cl)c3)cc2)=NN1
4. O=C1COC(c2ccc(/N=N/c3cccc(F)c3)cc2)=NN1

Return:
0.165 µM
0.284 µM
0.288 µM
0.012 µM

Please look at the items below and tell me IC50 for each one, in order.
1. O=C1COC(c2ccc(/N=N/c3ccccc3)cc2)=NN1
2. O=C1COC(c2ccc(/N=N/c3cccc(Cl)c3)cc2)=NN1
3. O=C1COC(c2ccc(/N=C/c3ccc(Cl)cc3)cc2)=NN1

Return:
1: 0.004 µM; 2: 0.287 µM; 3: 0.433 µM

Please look at the items below and tell me IC50 for each one, in order.
1. O=C1COC(c2ccc(/N=C/c3cccc(F)c3)cc2)=NN1
2. O=C1COC(c2ccc(NC(=O)Nc3cccc(Cl)c3)cc2)=NN1

Return:
1. 1.53 µM
2. 2.89 µM

Please look at the items below and tell me IC50 for each one, in order.
1. NC(=O)CN1N=C(c2ccc(NC(=O)c3cccc(Cl)c3)cc2)OCC1=O
2. Cc1cccc(/C=C/c2ccc(C3=NNC(=O)CO3)cc2)c1
3. O=C1COC(c2ccc(/N=C/c3ccccc3)cc2)=NN1
4. O=C1COC(c2ccc(/C=N/Nc3cccc(Cl)c3)cc2)=NN1
5. O=C1COC(c2ccc(NCc3cccc(Cl)c3)cc2)=NN1
6. O=C1COC(c2ccc(/N=C/c3cccc(Cl)c3)cc2)=NN1

Return:
["3.69 µM", "0.338 µM", "> 10 µM", "0.554 µM", "2.69 µM", "0.257 µM"]

Please look at the items below and tell me IC50 for each one, in order.
1. CN1N=C(c2ccc(/N=C/c3cccc(Cl)c3)cc2)OCC1=O
2. O=C1COC(c2ccc(/C=C/c3ccc(Cl)cc3)cc2)=NN1
3. O=C1COC(c2ccc(/C=C/c3cccc(Cl)c3)cc2)=NN1
4. O=C1COC(c2ccc(NS(=O)(=O)c3cccc(Cl)c3)cc2)=NN1
5. O=C1COC(c2ccc(/N=N/c3ccc(Cl)cc3)cc2)=NN1

Return:
1: 2.03 µM; 2: 0.542 µM; 3: 0.173 µM; 4: > 10 µM; 5: 0.392 µM

Please look at the items below and tell me IC50 for each one, in order.
1. Cc1cccc(/N=N/c2ccc(C3=NNC(=O)CO3)cc2)c1
2. Cc1cccc(/C=N/c2ccc(C3=NNC(=O)CO3)cc2)c1

Return:
0.025 µM
1.27 µM
